Compiled record: pIC50 values for SYK kinase (Homo sapiens) across several sources.
pIC50: −log10 of the molar value.
REPORTED_PROPERTY: pIC50

{"CHEMICAL_STRUCTURE": "CC(=O)N1CCN(c2ccc(-c3cc4nccnc4c(O[C@@H]4CCOC4)n3)cc2C)CC1", "pIC50": 7.57}

A. CC(C)(C)c1cc(NC(=O)Nc2ccc(Oc3ccnc(Nc4ccc5[nH]ncc5c4)c3)c3ccccc23)n(-c2cccc(OCCN3CCOCC3)c2)n1
B. Cc1nn(C)c2sc(-c3nc(N[C@@H]4CCOC[C@@H]4N)c(F)c4c3C(=O)NC4)cc12
C. NS(=O)(=O)N1CCO[C@H](COc2nc(-c3ccc(N4CCC(F)(F)CC4)cc3)cc3nccnc23)C1
D. COc1cc(Nc2cc(Oc3ccc(NC(=O)Nc4cc(C(C)(C)C)cc(NS(C)(=O)=O)c4OC)c4ccccc34)ccn2)ccc1C(=O)NCCN1CC[S+]([O-])CC1
*Q* Ascending sort, pIC50. Enter labels, ranked according to the request.
*A* D, C, A, B

---

pIC50: −log10 of the molar value.
Compiled record: pIC50 values for SYK kinase (Homo sapiens) across several sources.

Solved cases (3 shown):
{"COMPOUND": "N[C@H]1CCCC[C@H]1Nc1nc(-c2cc3cc(F)ccc3s2)c2c(c1F)CNC2=O", "RESULT": 9.50}
{"COMPOUND": "COc1cc(-c2cc3nccc(NCC4CCCNC4)c3o2)cc(OC)c1OC (stereo not drawn)", "RESULT": "4.30 to 5.52"}
{"COMPOUND": "Cn1ccnc1Sc1ccc(Nc2nccn3nc(Nc4cccc(C(F)(F)F)c4)nc23)cc1Cl", "RESULT": "4.30 to 5.52"}

Result for Cn1c(=O)c(Nc2ccc(N3CCNCC3)cc2)nc2ccc(-c3cn[nH]c3)cc21 , tested on SYK kinase (Homo sapiens), pIC50: 8.44

Result for Cc1cc(Nc2nc3cncc(-c4cnn(C)c4)n3n2)ccc1C(=O)NCC1CC1 , tested on SYK kinase (Homo sapiens), pIC50: 5.30 to 6.00

Result for COc1cccc2nc(Nc3cnn(C(C)C)c3)c3[nH]ncc3c12 , tested on SYK kinase (Homo sapiens), pIC50: 7.00 to 8.00

Result for CS(=O)(=O)c1ccc(-c2nccn3nc(Nc4ccc(N5CCOCC5)cc4)nc23)cc1 , tested on SYK kinase (Homo sapiens), pIC50: 6.52 to 7.00

Result for CC1=NC2(CCN(c3nccn4nc(Nc5ccc6c(c5)NC(=O)C6(C)C)nc34)CC2)C(=O)N1 , tested on SYK kinase (Homo sapiens), pIC50: 6.52 to 7.00

Result for Cc1noc(C)c1-c1cc2nccc(-c3cnn(C)c3)c2o1 , tested on SYK kinase (Homo sapiens), pIC50: 5.52 to 6.52

---

Compiled record: IC50 values for SYK kinase (Homo sapiens) across several sources.
REPORTED_PROPERTY: IC50 (µM)

{"CHEMICAL_STRUCTURE": "OC1(c2ccc(Nc3nc(-c4cnc5c(c4)NCCO5)cn4ccnc34)cc2)COC1", "TESTED_ON": "SYK kinase (Homo sapiens)", "REPORTED_PROPERTY": "IC50", "RESULT_NUMBER": 0.008}

P. COc1c(CC(N)=O)cc(C(C)(C)C)cc1NC(=O)Nc1ccc(Oc2ccnc(Nc3ccn(C)n3)c2)c2ccccc12
Q. CC(C)(C)c1cc(NC(=O)Nc2ccc(Oc3ccnc(Nc4ccc5[nH]ncc5c4)n3)c3ccccc23)n(-c2cccc(CN3CCCC3=O)c2)n1
*Q* Could you kindly indicate whether P or Q has the higher IC50 value? Pick one and reply with its label.
*A* P
(P: 0.381 µM, Q: 0.012 µM)

---

Compiled record: pIC50 values for SYK kinase (Homo sapiens, UniProt P43405) across several sources.
pIC50: −log10 of the molar value.

Solved cases (3 shown):
{"MOLECULE": "CC1(C)C(=O)Nc2cc(Nc3nc4c(N5CCC6(COC6)C5)nccn4n3)ccc21", "TESTED_ON": "SYK kinase (Homo sapiens, UniProt P43405)", "RESULT": "> 7.00"}
{"MOLECULE": "COc1ccc(C(N)=O)cc1-c1cc2nccc(-c3cnc(F)cc3C)c2o1", "TESTED_ON": "SYK kinase (Homo sapiens, UniProt P43405)", "RESULT": "4.30 to 5.52"}
{"MOLECULE": "COc1cc2ccc1OCCCNC(=O)C1(C)Oc3ccc(cc3NC1=O)Nc1nc(ncc1F)N2 (stereo not shown)", "TESTED_ON": "SYK kinase (Homo sapiens, UniProt P43405)", "RESULT": "4.30 to 5.52"}

The molecule listed as CC(C(=O)O)n1cc(Nc2nc(-c3ccoc3)nc3cn[nH]c23)cn1 (stereo not shown) has a reported pIC50 of 6.00 to 7.00

---

pIC50: −log10 of the molar value.
Compiled record: pIC50 values for SYK kinase (Homo sapiens, UniProt P43405) across several sources.

Solved cases (5 shown):
{"CHEMICAL_STRUCTURE": "COc1cc2ccc1OCCNC(=O)[C@H](Cc1ccccc1)NC(=O)[C@]1(C)Oc3ccc(cc3NC1=O)Nc1nc(ncc1F)N2", "pIC50": "5.52 to 6.52"}
{"CHEMICAL_STRUCTURE": "COc1cc(NC(=O)[C@@H]2C[C@@H](O)CN2)cc(-c2cc3nccc(-c4ccccc4)c3o2)c1", "pIC50": "> 6.52"}
{"CHEMICAL_STRUCTURE": "CC(C)N1CCN(c2ccc(Nc3nc(NC4CC4)c4c(S(C)(=O)=O)n[nH]c4n3)cc2)CC1", "pIC50": "≥ 6.70"}
{"CHEMICAL_STRUCTURE": "OCc1ccc(-c2cc3nccc(-c4ccc(CO)cc4)c3o2)cc1", "pIC50": "5.52 to 6.52"}
{"CHEMICAL_STRUCTURE": "CCc1ccc(-c2cc3nccnc3c(OC[C@@H]3CN(C(=O)NC)CCO3)n2)cc1", "pIC50": 7.08}

The molecule listed as Cc1c(Nc2ccnc3cc(-c4ccc5c(c4)OCCO5)oc23)ccc2[nH]ccc12 has a reported pIC50 of 5.52 to 6.52

The molecule listed as CC(=O)N1C[C@H](O)C[C@@H]1c1nc(-c2ccc(OCC(F)(F)F)cc2)c2cnc3[nH]ccc3n12 has a reported pIC50 of 7.00 to 7.52

The molecule listed as Cc1cc(Nc2nc3cncc(-c4cnn(C)c4)n3n2)ccc1C(=O)NC1CC1 has a reported pIC50 of 5.30 to 6.00

---

pIC50: −log10 of the molar value.
Compiled record: pIC50 values for SYK kinase (Homo sapiens) across several sources.
REPORTED_PROPERTY: pIC50

Solved cases (4 shown):
{"CHEMICAL_STRUCTURE": "Cc1cc(Nc2nccc(Oc3ccc(NC(=O)Nc4cc(C(C)(C)C)nn4-c4cccc(CN5CCCC5=O)c4)c4ccccc34)n2)cc2cn[nH]c12", "RESULT_NUMBER": 8.70}
{"CHEMICAL_STRUCTURE": "CC(=O)N1CCO[C@H](COc2nc(-c3ccc4c(c3)CCOC4(C)C)cc3nccnc23)C1", "RESULT_NUMBER": 7.52}
{"CHEMICAL_STRUCTURE": "CC(=O)N1CCO[C@H](COc2nc(-c3ccc(C4(O)CCC4)cc3)cc3nccnc23)C1", "RESULT_NUMBER": 6.90}
{"CHEMICAL_STRUCTURE": "CC(C)(C)c1ccc(-c2cc3nccnc3c(OC[C@@H]3CN(S(C)(=O)=O)CCO3)n2)cc1", "RESULT_NUMBER": 7.44}

a. COc1cc(CO)cc(Nc2cc(Oc3ccc(NC(=O)Nc4cc(C(C)(C)C)cc(C(N)=O)c4OC)c4ccccc34)ccn2)c1
b. COc1ccc(-n2nc(C(C)C)cc2NC(=O)Nc2ccc(Oc3ccnc(Nc4ccc5[nH]nc(C(=O)N(C)C)c5c4)n3)c3ccccc23)cc1
*Q* From the items above, decide which of a and b has the lower pIC50 reading. Pick one and reply with its label.
*A* a

---

pIC50: −log10 of the molar value.
Compiled record: pIC50 values for SYK kinase (Homo sapiens) across several sources.

{"COMPOUND": "NCc1cccc(-c2nccn3nc(Nc4ccc(N5CCOCC5)cc4)nc23)c1", "RESULT": "> 6.52"}

Result for CC(=O)N1CCO[C@H](COc2nc(-c3ccc(N(C)C(C)C)cc3)cc3nccnc23)C1 , tested on SYK kinase (Homo sapiens), pIC50: 7.24

Result for COCCCn1cc(Nc2nc(-c3ccoc3)nc3cn[nH]c23)cn1 , tested on SYK kinase (Homo sapiens), pIC50: > 8.00

---

Compiled record: IC50 values for UniProt P43405 across several sources.

{"CHEMICAL_STRUCTURE": "CC(=O)N1CCC(n2cc(Nc3nc(-c4ccco4)nc4cn[nH]c34)cn2)CC1", "REPORTED_PROPERTY": "IC50", "RESULT": "< 10 nM"}
{"CHEMICAL_STRUCTURE": "COc1ccc(-n2nc(C(C)(C)C)cc2NC(=O)Nc2ccc(Oc3ccnc(Nc4cc(C)c5[nH]ncc5c4)n3)c3ccccc23)cc1", "REPORTED_PROPERTY": "IC50", "RESULT": "5 nM"}
{"CHEMICAL_STRUCTURE": "COc1ccc(C(N)=O)cc1-c1cc2nccc(-c3ccnc(NC[C@H]4CCCNC4)c3)c2o1", "REPORTED_PROPERTY": "IC50", "RESULT": "< 100 nM"}
{"CHEMICAL_STRUCTURE": "COCCNc1ccc(-c2cc3nccnc3c(OC[C@@H]3CN(C(C)=O)CCO3)n2)cc1", "REPORTED_PROPERTY": "IC50", "RESULT": "122 nM"}

The molecule listed as CC1(C)C(=O)Nc2cc(Nc3nc4c(N5CCC(N6CCNC6=O)CC5)nccn4n3)ccc21 has a reported IC50 of 300 to 3000 nM

The molecule listed as CC(C)(C#N)n1cc(Nc2nc(-c3ccc4cn[nH]c4c3)nc3cn[nH]c23)cn1 has a reported IC50 of 10 to 100 nM

The molecule listed as CC(=O)N1C[C@H](O)C[C@@H]1c1nc(-c2ccc(OCCn3nccn3)cc2)c2cnc3[nH]ccc3n12 has a reported IC50 of 30 to 100 nM

The molecule listed as CC1(C)C(=O)Nc2cc(Nc3nc4c(-c5ccc6c(c5)OCCO6)nccn4n3)ccc21 has a reported IC50 of < 100 nM
